target: T1, rhesus recombinant CD70 (FLAG-TNC-rhesus CD70) (rhesus); experiment: Biacore; rhesus recombinant CD70 on chip; Fab injected
T1 construct: also called rhesus Flag-TNC-CD70
koff values, listed per item
Write the answer as a number in s⁻¹, unit excluded.

BINDER	READOUT_UNIT	koff
5F4 Fab (Fab, V domains shown, Llama-derived Fab) VH: EVQVQESGGGLVHPGGSLKLSCAASGFTFDTYAMSWVRQAPGKGLEWVSAISWSGGETFYAESMKGRFTISRNNAKNTLYLQMNSLKSEDTAVYYCARGMGLAEGLTDWGQGTQVTVSS VL: QAVVTHPPSLSASPGSSVRLTCTLISGDNIGGYDISWYQQKTGSPPRYLLYYYSDSYKHQSSGVPSRFSGSKDASANAGLLLISGLQSEDEADYYCSAYKSGSYKAPVFGGGTHLTVLG	s⁻¹	0.0005

For the next question, use this binder.
koff for 9D1 Fab (Fab, V domains shown, Llama-derived Fab) VH: EVQLVESGGGLVQPGGSLRLSCAASGFTFSVYYMNWVRQAPGKGLEWVSDINNEGGTTYYADSVKGRFTISRDNAKNTLTLQMNSLKPEDTALYYCVRDAGYSNHVPIFDSWGQGTQVIVAS VL: QAVVTQEPSLSVSPGGTVTLTCGLSSGSVTSSHYPGWYQQTPGQAPRLLIFNTNSRHSGVPSRFSGSISGNKAALTITGAQPEDEADYYCALLNIDDGSTMFGGGTHLTVLG is 0.0002
